The values you see were collected from patent US11173145B2.

biological target: IDO1 (Homo sapiens); construct: endogenous in cells; assay: IDO1 cell-based assay (HeLa cells, IFNgamma-induced, N-formylkynurenine/L-tryptophan by RFMS); settings: 10 ng/mL IFNgamma, 24 hours
Sequence (P14902 whole entry): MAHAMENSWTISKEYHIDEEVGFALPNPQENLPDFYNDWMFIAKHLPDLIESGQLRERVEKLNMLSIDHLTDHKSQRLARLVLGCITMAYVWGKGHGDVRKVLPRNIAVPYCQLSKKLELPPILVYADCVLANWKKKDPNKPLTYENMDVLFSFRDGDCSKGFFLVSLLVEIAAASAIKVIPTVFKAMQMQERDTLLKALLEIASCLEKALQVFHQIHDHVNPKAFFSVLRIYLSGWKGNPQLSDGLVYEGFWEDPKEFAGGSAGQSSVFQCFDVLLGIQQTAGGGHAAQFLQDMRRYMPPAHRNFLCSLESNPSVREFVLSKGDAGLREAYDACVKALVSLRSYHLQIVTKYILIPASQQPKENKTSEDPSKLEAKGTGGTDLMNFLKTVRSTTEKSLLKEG
Measured IC50, listed per entry.
measured metric: IC50

INSERT INTO measurements (molecule, measured_metric, test_value) VALUES
  ('CCC(NC(=O)c1ccc(Cl)cc1)[C@H]1[C@@H]2C[C@@H](n3cc(N)nn3)C[C@@H]21 (stereo partly shown)', 'IC50', '2000 to 5000 nM'),
  ('O=C(Cc1ccc(Cl)cc1)N[C@H]1[C@@H]2C[C@@H](n3cnc4ccc(F)cc4c3=O)C[C@@H]21', 'IC50', '2000 to 5000 nM'),
  ('CCC(NC(=O)c1ccc(C#N)cc1)[C@H]1[C@@H]2C[C@@H](Oc3ncnc4ccc(F)cc34)C[C@@H]21 (stereo partly shown)', 'IC50', '< 200 nM'),
  ('O=C(NC[C@H]1[C@H]2C[C@H](Oc3cc(C(F)(F)F)nc4ccc(F)cc34)C[C@@H]12)c1ccc(Cl)cc1', 'IC50', '200 to 2000 nM');
